RUN_DESCRIPTION: gradient 5% acetonitrile 3 min, to 50% in 2 min, to 85% in 15 min, held 3 min, 100 µL/min
RUN_CONDITIONS: column: Zorbax Extend-C18 2.1 x 50 mm; eluents: water / acetonitrile, 0.1% formic acid
METRIC_NAME: RP-LC retention time (s)
Supply the numeric figure in s, leaving out any unit text.

Example entries begin here.
> print(dat)
                                        smi           metric.name  recorded.result
1  CCc1ccc2c(c1)-c1ccccc1S(=O)(=O)N2CC(=O)NCc1ccccn1  RP-LC retention time              720
2    CCc1nc2cc(-c3noc(-c4ccc(C)s4)n3)ccc2o1  RP-LC retention time             1200
3             CNc1nnc(-c2nnc(C)o2)c2ccccc12  RP-LC retention time              567

Please look at this compound and report its RP-LC retention time: COc1ccc(NC(=O)Nc2cc(-c3cn4cccnc4n3)ccc2C)cc1
590

----------
RUN_DESCRIPTION: gradient 5% acetonitrile 3 min, to 50% in 2 min, to 85% in 15 min, held 3 min, 100 µL/min
RUN_CONDITIONS: column: Zorbax Extend-C18 2.1 x 50 mm; eluents: water / acetonitrile, 0.1% formic acid
METRIC_NAME: RP-LC retention time (s)
Supply the numeric figure in s, leaving out any unit text.

Example entries begin here.
> print(dat)
                                        smi           metric.name  reading.unit  recorded.result
1  CCN1CCCn2cc(S(=O)(=O)Nc3cc(F)ccc3C)cc2C1=O  RP-LC retention time             s              729
2  CCOC(=O)c1csc(NC(=O)c2csc3nc(-c4ccc(F)cc4)cn23)n1  RP-LC retention time             s              913

Shifting focus to the compound that follows.
Please look at this compound and report its RP-LC retention time: COc1ccccc1N1CCN(c2ncccc2-c2nc(-c3ccc(Cl)cc3)no2)CC1
1320

----------
RUN_DESCRIPTION: gradient 5% acetonitrile 3 min, to 50% in 2 min, to 85% in 15 min, held 3 min, 100 µL/min
RUN_CONDITIONS: column: Zorbax Extend-C18 2.1 x 50 mm; eluents: water / acetonitrile, 0.1% formic acid
METRIC_NAME: RP-LC retention time (s)
Supply the numeric figure in s, leaving out any unit text.

Example entries begin here.
> print(dat)
                                   compound           metric.name  reading.unit  recorded.result
1  COc1ccc(C(=O)Nc2nnc(SCc3nnc(-c4ccccc4)o3)s2)cc1  RP-LC retention time             s              899
2  Cc1nn(C(C)C(=O)NCCCN2CCCCC2)c(=O)c2c1sc1ccccc12 (configuration not stated)  RP-LC retention time             s              680
3  Cn1c(=O)n([C@H]2CCN(S(=O)(=O)c3ccccc3Cl)C2)c2ncccc21  RP-LC retention time             s              840
4  Cc1ccc(-c2noc(-c3cc(N4CCN(C)CC4)nc4ccccc34)n2)cc1  RP-LC retention time             s              835
5       Cc1ccc(CNC(=O)c2cc3sc(Cl)cc3n2C)cc1  RP-LC retention time             s             1110
6          CC(=O)N1CCN(C(=O)c2ccc(O)cc2)CC1  RP-LC retention time             s              515
7  CC(C)CCNC(=O)Cn1nc(S(=O)(=O)c2cccc(F)c2)ccc1=O  RP-LC retention time             s              757
8  O=c1c2sccc2n(Cc2nc(-c3ccc(Br)cc3)no2)c(=O)n1-c1ccc(F)cc1  RP-LC retention time             s             1100

Please look at this compound and report its RP-LC retention time: O=C(Nc1cccnc1)N1CCC(Cc2cccc(Oc3ccc(C(F)(F)F)cn3)c2)CC1
866

Please look at this compound and report its RP-LC retention time: Cc1ccc(-n2cc3c(N4CCCC(C(=O)NC5CCCCCC5)C4)ncnc3n2)cc1 (configuration not stated)
762

Please look at this compound and report its RP-LC retention time: Cc1ccc(Nc2c(-c3ccc(N(C)C)cc3)nc3cccc(C)n23)cc1
816

Please look at this compound and report its RP-LC retention time: CC(=O)Nc1ccc(N(Cc2nnc3n2CCCCC3)C(=O)Nc2ccc(Cl)cc2)cc1
690

Please look at this compound and report its RP-LC retention time: O=C(Cc1cccc(C(F)(F)F)c1)Nc1cnn(-c2ncc(N3CCCC3)cn2)c1
907

Please look at this compound and report its RP-LC retention time: O=C(NCC1CC1)c1cn(-c2cc(-c3nc(C4CC4)no3)ccn2)cn1
848

Please look at this compound and report its RP-LC retention time: COc1ccc(-c2csc(Nc3ccc(Br)cn3)n2)cc1OC
1100

Please look at this compound and report its RP-LC retention time: CN(C)c1ccc(/C=C2\C=Cc3ccccc32)cc1
1240

Please look at this compound and report its RP-LC retention time: O=C(O)Cc1csc(NC(=O)C2CCC(=O)N2)n1 (configuration not stated)
528

Data origin, for the record: the METLIN SMRT retention time set (Domingo-Almenara et al. 2019)
